# target of assay: human NAMPT (Homo sapiens, UniProt P43490)
# Sequence (P43490 whole entry): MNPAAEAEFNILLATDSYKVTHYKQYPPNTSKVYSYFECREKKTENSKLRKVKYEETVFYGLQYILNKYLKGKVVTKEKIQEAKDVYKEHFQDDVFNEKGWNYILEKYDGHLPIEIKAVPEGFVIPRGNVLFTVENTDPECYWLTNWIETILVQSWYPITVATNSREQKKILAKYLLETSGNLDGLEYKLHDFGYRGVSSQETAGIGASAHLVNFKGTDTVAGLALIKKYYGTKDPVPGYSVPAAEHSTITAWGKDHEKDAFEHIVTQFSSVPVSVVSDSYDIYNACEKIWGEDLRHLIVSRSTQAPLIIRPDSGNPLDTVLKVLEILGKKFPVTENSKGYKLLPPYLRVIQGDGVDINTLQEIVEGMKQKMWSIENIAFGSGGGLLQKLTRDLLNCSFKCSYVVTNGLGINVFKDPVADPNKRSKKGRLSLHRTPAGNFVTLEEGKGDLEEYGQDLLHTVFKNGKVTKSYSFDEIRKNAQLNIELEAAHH
# experiment notes: Human recombinant enzyme assay (NMN fluorescence biochemical assay, activation of NAMPT)
# conditions used: Table A; human recombinant NAMPT, NMN formation, 60 min; read-out: EC50 Human
Exercise: state measured EC50 for each of the compounds provided.
One number for each entry, in µM.

compound	EC50 (µM)
CS(=O)(=O)C1CC2(CC(NC(=O)NCc3ccc(Cl)cc3)C2)C1 (stereo not shown) [Compound 342]	56.1
Cc1cnccc1C(=O)NC1CC2(CC(NC(=O)NCc3ccc(Cl)cc3)C2)C1 (stereo not shown) [Compound 204]	26.8
O=C(CCCCCNC(=O)NCc1ccc(Cl)cc1)Nc1ccccc1-c1ccccc1 [Compound 273]	0.3
COc1ccc(CNC(=O)NC2CC3(C2)CC(C(=O)N2CCCc4cc(OC(F)(F)F)ccc42)C3)cc1 (stereo not shown) [Compound 107]	48.8
COc1ccc(CNC(=O)NC2CC3(C2)CN(C(=O)C(C)(C)c2cccc(C)c2)C3)cc1 [Compound 154]	31

Record EC50 for all entries; do not skip any.
1. COc1ccc(CNC(=O)NC2CC3(C2)CC(C(=O)NC2CCCc4cc(F)ccc42)C3)cc1 (stereo in doubt) [Compound 98]
2. Cc1ccc(C(=O)N2CC3(CC(NC(=O)NCc4ccc(C(N)=O)nc4)C3)C2)cc1 [Compound 215]
3. CC(C)(C)OC(=O)N1CCC(NC(=O)NCc2ccc(C(N)=O)cc2)CC1 [Compound 5]
4. CN1CCN(CC2CC3(C2)CC(NC(=O)NCc2ccc(Cl)cc2)C3)CC1=O (stereo not shown) [Compound 238]
5. Cc1ccc(C(=O)N2CC3(CC(NC(=O)NCc4ccc(C(N)=O)cc4)C3)C2)cc1 [Compound 211]
6. O=C(NCCCCC1CCN(C(=O)Cc2cn[nH]c2)CC1)NCc1ccc(Cl)cc1 [Compound 316]
7. COc1ccc(CNC(=O)NC2CC3(C2)CC(c2nnc(-c4ccccc4)o2)C3)cc1 (stereo not shown) [Compound 325]
8. Cc1ccc(C(=O)NC2CC3(CC(NC(=O)NCc4ccc(Cl)cc4)C3)C2)cn1 (stereo not shown) [Compound 192]

*A*
[7, 30.8, 48.6, 20.3, 27.8, 6.4, 30.6, 52.8]

Each compound below has a reported value. Please supply its EC50.
1. O=C(NCc1ccc(Cl)cc1)NC1CC2(C1)CC(N(Cc1ccccc1)Cc1ccccc1)C2 (stereo not shown) [Compound 119]
2. CC(C(=O)N(C)Cc1ccccc1)C1CC2(CC(NC(=O)NCc3ccc(Cl)cc3)C2)C1 (stereo not shown) [Compound 237]
3. COc1ccc(CNC(=O)N[C@H]2C[C@@]3(CCN(C(=O)OC(C)(C)C)C3)C2)cc1 [Compound 82]

*A*
1: 16.7; 2: 2.6; 3: 52.3
